Cited source for all entries: the supplement of paper PMC6555819

Would you mind telling me the reported PBM binding z-score of each entry?
Test system: RARg homodimer (NR concentration 270 nM)
Test: PBM binding z-score (relative to random genomic background probes); higher = stronger binding; sequences stand for … in GC…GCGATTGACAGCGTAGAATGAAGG
No unit in the answer, please; the number alone is enough.

Just so you know, measured PBM binding z-score for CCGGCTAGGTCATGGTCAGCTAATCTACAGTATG came out at 4.99

Just so you know, measured PBM binding z-score for CCTCGGAGGACAAAAGGTCAGAGCTGTCCGCTTT came out at 5.86

Just so you know, measured PBM binding z-score for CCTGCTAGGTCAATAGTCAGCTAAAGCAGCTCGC came out at 3.91

Just so you know, measured PBM binding z-score for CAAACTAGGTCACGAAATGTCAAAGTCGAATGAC came out at 5.58

Just so you know, measured PBM binding z-score for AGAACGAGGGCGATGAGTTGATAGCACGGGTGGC came out at 0.302

Just so you know, measured PBM binding z-score for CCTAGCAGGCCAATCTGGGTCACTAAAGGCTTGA came out at 1.17

Just so you know, measured PBM binding z-score for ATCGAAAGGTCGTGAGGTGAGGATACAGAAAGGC came out at 3.99

Just so you know, measured PBM binding z-score for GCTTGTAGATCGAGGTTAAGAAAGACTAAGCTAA came out at 0.00467

Just so you know, measured PBM binding z-score for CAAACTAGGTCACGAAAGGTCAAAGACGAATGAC came out at 8.37

Just so you know, measured PBM binding z-score for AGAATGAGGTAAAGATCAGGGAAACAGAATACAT came out at 0.491

Just so you know, measured PBM binding z-score for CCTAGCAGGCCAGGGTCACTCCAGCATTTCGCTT came out at 2.18

Just so you know, measured PBM binding z-score for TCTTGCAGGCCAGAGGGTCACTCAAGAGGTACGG came out at 2.38

Just so you know, measured PBM binding z-score for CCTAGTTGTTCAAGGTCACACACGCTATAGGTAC came out at 4.87

Just so you know, measured PBM binding z-score for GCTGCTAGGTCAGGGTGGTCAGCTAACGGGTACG came out at 3.73

Just so you know, measured PBM binding z-score for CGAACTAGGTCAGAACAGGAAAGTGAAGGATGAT came out at 2.9

Just so you know, measured PBM binding z-score for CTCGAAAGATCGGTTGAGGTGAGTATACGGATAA came out at -0.0275

Just so you know, measured PBM binding z-score for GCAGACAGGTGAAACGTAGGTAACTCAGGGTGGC came out at 0.393

Just so you know, measured PBM binding z-score for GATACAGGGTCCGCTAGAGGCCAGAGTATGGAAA came out at 0.211

Just so you know, measured PBM binding z-score for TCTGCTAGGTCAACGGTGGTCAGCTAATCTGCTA came out at 4.99

Just so you know, measured PBM binding z-score for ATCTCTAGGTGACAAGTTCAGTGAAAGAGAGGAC came out at 1.82

Just so you know, measured PBM binding z-score for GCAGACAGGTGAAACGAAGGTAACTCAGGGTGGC came out at 0.315

Just so you know, measured PBM binding z-score for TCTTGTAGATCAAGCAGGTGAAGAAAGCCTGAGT came out at -0.325

Just so you know, measured PBM binding z-score for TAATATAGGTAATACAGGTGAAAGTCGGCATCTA came out at 0.786

Just so you know, measured PBM binding z-score for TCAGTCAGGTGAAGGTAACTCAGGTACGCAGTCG came out at 0.793

Just so you know, measured PBM binding z-score for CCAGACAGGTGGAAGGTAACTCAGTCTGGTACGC came out at -0.15

Just so you know, measured PBM binding z-score for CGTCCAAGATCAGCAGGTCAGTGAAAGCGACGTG came out at 1.51
